Kindly supply the reported log10 vapour pressure (mmHg) values for the records listed here.
Give bare numbers.

I need log10 vapour pressure (mmHg) for every entry listed below, if you could help.
1. Clc1ccccc1
2. Clc1ccc(Cl)c(-c2ccc(Cl)c(Cl)c2Cl)c1
3. OCCC1CCCCC1

1: 1.08; 2: -4.77; 3: -0.78

* * *

details: fish
Kindly supply the reported log10 biotransformation half-life (days) values for the records listed here.
One number for each entry.

Use these answered entries as a reference point.
[[record]]
molecule = "Clc1ccc(-c2c(Cl)cc(Cl)c(Cl)c2Cl)cc1"
recorded_measurement = 1.84

[[record]]
molecule = "c1ccc2ncccc2c1"
recorded_measurement = -1.33

[[record]]
molecule = "Brc1cc(Br)c(-c2c(Br)cc(Br)cc2Br)c(Br)c1"
recorded_measurement = 2.66

[[record]]
molecule = "Nc1ccc2c(c1)C(=O)c1ccccc1C2=O"
recorded_measurement = -1.06

[[record]]
molecule = "Clc1cc2c(oc3cc(Cl)c(Cl)c(Cl)c32)c(Cl)c1Cl"
recorded_measurement = 1


I need log10 biotransformation half-life (days) for every entry listed below, if you could help.
1. CCCCC(CC)CN1C(=O)C2C(C1=O)C1(C(C)C)C=CC2(C)CC1 (configuration not stated)
2. COc1ccc(Cl)c(Cl)c1Cl

1. 0.31
2. 1.4
